# testDetails: Solubility of the crystalline salt forms in water
# Type: physicochemical
# conditionSummary: shaken 2 hours, filtered, UV-spectroscopy
observedProperty: solubility in water at room temperature (µg/mL)

These recorded examples may help you get a feel for the data.
- compound: "O=S(=O)(O)c1ccccc1.O=c1[nH]c2ccccc2n1CCN1CCN(c2cccc(C(F)(F)F)c2)CC1 [VIII]"
  solubility in water at room temperature (µg/mL): 100
- compound: "O=C(O)C(=O)O.O=c1[nH]c2ccccc2n1CCN1CCN(c2cccc(C(F)(F)F)c2)CC1 [IX]"
  solubility in water at room temperature (µg/mL): 1700
- compound: "CC1(C)C2CCC1(CS(=O)(=O)O)C(=O)C2.O=c1[nH]c2ccccc2n1CCN1CCN(c2cccc(C(F)(F)F)c2)CC1 [XXXII]"
  solubility in water at room temperature (µg/mL): 700

A: O=C(O)CO.O=c1[nH]c2ccccc2n1CCN1CCN(c2cccc(C(F)(F)F)c2)CC1 [XXXIII]
B: Cc1ccc(S(=O)(=O)O)cc1.O=c1[nH]c2ccccc2n1CCN1CCN(c2cccc(C(F)(F)F)c2)CC1 [XXX]
Please tell me which of the two, A or B , has the higher reported solubility in water at room temperature value. Returns: label corresponding to the selected item. A
